Tested on: crabgrass (Digitaria sanguinalis L.): DIGSA
protocol-notes: Test Example 1 pre-emergence herbicidal activity, DIGSA
Type: in vivo
measurement-conditions: Rate 125 g a.i./ha, visually observed 20th to 23rd day after application
readout-label: Pre-emergence Herbicidal Activity DIGSP (growth controlling degree)
Express the reported value numerically, then name its unit.

Record excerpt, results attached:
COc1c(Cl)cc(F)c(-c2nn(C)c(OC(F)F)c2Cl)c1N(C(=O)OCCl)C(=O)OCCl    95%
Cn1nc(-c2c(F)cc(Cl)c(OC(F)F)c2N(C=O)Cc2ccccc2)c(Cl)c1OC(F)F    0%
CCOC(=O)C(C)N(C=O)c1c(OC)c(Cl)cc(F)c1-c1nn(C)c(OC(F)F)c1Cl (stereo not shown)    0%

// next entry
Exam item: State its Pre-emergence Herbicidal Activity DIGSP (growth controlling degree) for this molecule: "COc1c(Cl)cc(F)c(-c2nn(C)c(OC(F)F)c2Cl)c1N(C=O)CCOc1ccccc1"
Marked response: 10%

* * *

Tested on: wheat (Triticum aestivum L.), TRZAX
protocol-notes: Test Example 2 post-emergence (foliage treatment) herbicidal activity, TRZAX
Format: in vivo
measurement-conditions: 63 g a.i./ha
readout-label: growth controlling degree, TRZAX (%)
Express it in %; write the number only.

Below, 5 molecules whose answers are already recorded.
CCOC(=O)C(C)Nc1c(OC)c(Cl)cc(F)c1-c1nn(C)c(OC(F)F)c1Cl (centres unmarked) [Compound 1-76]    40
COc1c(Cl)cc(F)c(-c2nn(C)c(OC(F)F)c2Cl)c1NC(=O)CC(C)(C)C [Compound 1-265]    30
COc1c(Cl)cc(F)c(-c2nn(C)c(OC(F)F)c2Cl)c1NC(=O)c1ccc(F)cc1F [Compound 1-30]    50
COc1c(Cl)cc(F)c(-c2nn(C)c(OC(F)F)c2Cl)c1NC(=O)C=C(C)C [Compound 1-9]    40
COc1c(Cl)cc(F)c(-c2nn(C)c(OC(F)F)c2Cl)c1NC(=O)c1cccc(C)c1 [Compound 1-260]    40

Exam item: Give growth controlling degree, TRZAX for this entry on wheat (Triticum aestivum L.), TRZAX: COc1c(Cl)cc(F)c(-c2nn(C)c(OC(F)F)c2Cl)c1NC1CCCC1 [Compound 1-60]
Marked response: 40

Exam item: Identify measured growth controlling degree, TRZAX obtained with wheat (Triticum aestivum L.), TRZAX for COc1c(Cl)cc(F)c(-c2nn(C)c(OC(F)F)c2Cl)c1NC(=O)OCc1cccnc1 [Compound 1-70] .
Marked response: 30

Exam item: Fill in growth controlling degree, TRZAX for COc1c(Cl)cc(F)c(-c2nn(C)c(OC(F)F)c2Cl)c1NC(=O)C=Cc1ccccc1C [Compound 1-253] tested with wheat (Triticum aestivum L.), TRZAX.
Marked response: 50

* * *

Test system: green foxtail (Setaria viridis L.): SETVI
protocol-notes: Test Example 1 pre-emergence herbicidal activity, SETVI
Assay type: in vivo
measurement-conditions: Rate 125 g a.i./ha, visually observed 20th to 23rd day after application
readout-label: Pre-emergence Herbicidal Activity SETVI (growth controlling degree) (%)
Give the number; % is assumed, so skip it.

Example cases with answers are listed next.
CCOC(=O)CN(C=O)c1c(OC)c(Cl)cc(F)c1-c1nn(C)c(OC(F)F)c1Cl [Compound 1-19]    10
COc1c(Cl)cc(F)c(-c2nn(C)c(OC(F)F)c2Cl)c1N(C(=O)CCc1ccccc1)C(=O)CCc1ccccc1 [Compound 1-18]    50
CCOC(=O)C(C)N(C=O)c1c(OC)c(Cl)cc(F)c1-c1nn(C)c(OC(F)F)c1Cl (stereo not shown) [Compound 1-42]    0

Exam item: // Input: Cn1nc(-c2c(F)cc(Cl)c(OC(F)F)c2N(C=O)Cc2ccccc2)c(Cl)c1OC(F)F [Compound 1-86] . Output its Pre-emergence Herbicidal Activity SETVI (growth controlling degree) only.
Marked response: 0
